Each entry below carries its reported IC50.
molecular target: CETP (Homo sapiens, UniProt P11597); experiment: Assay of CETP Inhibition using Purified Components (Reconstituted Buffer Assay); type: biochemical; set-up: made in house; host or cells: CHO cells (serum-free conditioned medium); conditions: Inhibition of CETP activity in reconstituted buffer assay; transfer of [3H]CE from HDL to LDL; read-out: IC50
Sequence (P11597 18-493): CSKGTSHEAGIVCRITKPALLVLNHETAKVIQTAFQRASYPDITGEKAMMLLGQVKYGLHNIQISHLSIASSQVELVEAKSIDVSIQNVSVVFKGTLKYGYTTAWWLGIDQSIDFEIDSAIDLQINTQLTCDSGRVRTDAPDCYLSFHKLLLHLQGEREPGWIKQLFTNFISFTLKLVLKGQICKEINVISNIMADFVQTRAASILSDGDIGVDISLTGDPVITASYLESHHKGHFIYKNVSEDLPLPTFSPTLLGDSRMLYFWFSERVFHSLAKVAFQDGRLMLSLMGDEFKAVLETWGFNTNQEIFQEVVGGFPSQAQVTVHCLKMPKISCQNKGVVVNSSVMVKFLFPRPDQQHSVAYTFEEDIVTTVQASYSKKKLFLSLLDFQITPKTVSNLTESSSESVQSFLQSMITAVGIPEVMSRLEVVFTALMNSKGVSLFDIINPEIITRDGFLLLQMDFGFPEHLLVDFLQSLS
MEASUREMENT KIND: IC50 (µM)

                                   compound  recorded_value
0  CCN(c1ccc(OC)cc1)c1cccc(N(Cc2cccc(OC(F)(F)C(F)F)c2)CC(O)C(F)(F)F)c1 (stereo not shown)             4.7
1  OC(CN(Cc1cccc(OC(F)(F)C(F)F)c1)c1cccc(OCc2csc3ccc(Cl)cc23)c1)C(F)(F)F (stereo not shown)              12
2  CCOc1ccc(Oc2cccc(N(Cc3cccc(OC(F)(F)C(F)F)c3)CC(O)C(F)(F)F)c2)cc1 (stereo not shown)             3.7
3  Cc1cccnc1-c1cccc(N(Cc2cccc(OC(F)(F)C(F)F)c2)CC(O)C(F)(F)F)c1 (stereo not shown)              22
